# SUBJECT OF TEST: hTLR8 (Homo sapiens, UniProt Q9NR97)
# Construct: host or cells: HEK293 cells stably transfected with hTLR8
# Sequence (Q9NR97 27-1041): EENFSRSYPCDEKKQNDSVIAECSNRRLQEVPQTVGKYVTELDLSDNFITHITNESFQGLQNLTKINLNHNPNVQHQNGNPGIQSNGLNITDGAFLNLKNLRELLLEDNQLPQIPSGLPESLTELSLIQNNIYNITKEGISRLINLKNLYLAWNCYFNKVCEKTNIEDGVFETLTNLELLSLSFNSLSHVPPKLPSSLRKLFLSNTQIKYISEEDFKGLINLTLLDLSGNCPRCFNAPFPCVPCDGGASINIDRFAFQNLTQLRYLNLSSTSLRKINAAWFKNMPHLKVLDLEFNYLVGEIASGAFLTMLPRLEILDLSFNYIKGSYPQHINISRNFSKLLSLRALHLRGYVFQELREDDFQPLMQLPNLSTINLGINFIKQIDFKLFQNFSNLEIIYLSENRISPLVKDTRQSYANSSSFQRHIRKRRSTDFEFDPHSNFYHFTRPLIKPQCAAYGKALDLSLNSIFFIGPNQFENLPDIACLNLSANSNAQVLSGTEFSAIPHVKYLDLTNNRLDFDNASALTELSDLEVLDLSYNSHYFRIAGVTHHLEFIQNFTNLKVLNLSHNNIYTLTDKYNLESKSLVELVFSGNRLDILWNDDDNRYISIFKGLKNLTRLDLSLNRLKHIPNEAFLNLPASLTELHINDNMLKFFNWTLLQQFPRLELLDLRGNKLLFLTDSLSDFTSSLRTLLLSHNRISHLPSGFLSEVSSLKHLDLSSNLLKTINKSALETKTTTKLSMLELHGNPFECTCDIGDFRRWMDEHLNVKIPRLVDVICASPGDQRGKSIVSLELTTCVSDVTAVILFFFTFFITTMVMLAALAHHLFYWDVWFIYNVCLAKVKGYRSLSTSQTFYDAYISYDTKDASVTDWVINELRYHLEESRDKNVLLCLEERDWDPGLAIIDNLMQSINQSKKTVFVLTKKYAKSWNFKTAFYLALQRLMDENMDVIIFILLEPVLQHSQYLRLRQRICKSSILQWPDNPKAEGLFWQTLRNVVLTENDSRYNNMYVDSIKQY
# ASSAY PROTOCOL: HEK-293 hTLR8 transfectant antagonist assay (NF-κB driven SEAP reporter)
# Assay type: cell-based
# ASSAY CONTEXT: IC50, nM, vs. 3M002 10 μM, hTLR8 reporter cells; agonist 3M002 10 μM
READOUT KIND: IC50

1) CCCN(CC(N)=O)C(=O)C1=Cc2cc(-c3ccc(NC(=O)OCC)cc3Cl)ccc2N=C(N)C1 [Compound 3336]    1000 to 10000 nM
2) CCOC(=O)C1=Cc2cc(-c3cccc(C(F)(F)F)c3)ccc2N=C(N)C1 [Compound 3059]    ≥ 10000 nM
3) CCOC(=O)C1=Cc2cc(Oc3ccc(OC)cc3)ccc2N=C(N)C1 [Compound 3125]    ≥ 10000 nM
4) CCOC(=O)C1=Cc2cc(-c3ccc(C)cc3)ccc2N=C(N)C1 [Compound 3272]    1000 to 10000 nM
